Each entry below carries its recorded pKd.
target: T1, serum purified human Complement Factor D (human, UniProt P00746 26-253); assay: SPR Biacore, antibody on protein A chip, single cycle kinetics, 37 C;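 further: antibodies captured on the protein A surface to roughly 70 RU in HBS-EP+ buffer, with rate and affinity constants fitted using BIAevaluation software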
T1 construct: Serum purified protein flowed over the captured antibodies; also called CFD; human CFD
T1 sequence (P00746 26-253): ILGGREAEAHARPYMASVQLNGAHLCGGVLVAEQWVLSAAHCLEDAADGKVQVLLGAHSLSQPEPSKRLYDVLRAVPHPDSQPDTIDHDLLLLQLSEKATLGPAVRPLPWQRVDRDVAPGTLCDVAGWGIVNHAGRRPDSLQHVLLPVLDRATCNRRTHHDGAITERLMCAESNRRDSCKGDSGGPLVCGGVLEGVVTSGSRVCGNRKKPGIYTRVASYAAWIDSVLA
pKd: −log10 of the molar value.
ENDPOINT: pKd

BINDER	MEASURED_NUMBER
31S54I59D84S / 32W60W101V (antibody, V domains shown, Label printed 31S54I59D845, read as 84S; full antibody captured on protein A; also called 31S54I59D845 / 32W60W101V) VH: EVQLVESGGGLVQPGGSLRLSCAASGYTFTSYYMNWVRQAPGKGLEWIGDINPITGDTDYNADFKRRFTFSLDTSKSTAYLQMSSLRAEDTAVYYCTREGPSFAYWGQGTLVTVSS VL: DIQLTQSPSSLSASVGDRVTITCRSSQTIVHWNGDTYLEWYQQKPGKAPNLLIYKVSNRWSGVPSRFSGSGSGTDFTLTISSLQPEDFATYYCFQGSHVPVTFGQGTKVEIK	10.63
31S54V59D / 54R101V (antibody, V domains shown, KCD119 TAF variant) VH: EVQLVESGGGLVQPGGSLRLSCAASGYTFTSYYMNWVRQAPGKGLEWIGDINPVTGDTDYNADFKRRFTFSLDTSKSTAYLQMNSLRAEDTAVYYCTREGPSFAYWGQGTLVTVSS VL: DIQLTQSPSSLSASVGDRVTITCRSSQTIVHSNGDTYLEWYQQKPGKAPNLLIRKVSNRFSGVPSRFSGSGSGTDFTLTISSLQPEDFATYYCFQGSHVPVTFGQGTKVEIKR	11.14
31S54I59D / 50I60W101V (antibody, V domains shown, KCD119 TAF variant; full antibody captured on protein A) VH: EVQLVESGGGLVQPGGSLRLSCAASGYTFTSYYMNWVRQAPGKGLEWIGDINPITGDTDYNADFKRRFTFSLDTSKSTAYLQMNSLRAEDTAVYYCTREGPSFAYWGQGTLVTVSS VL: DIQLTQSPSSLSASVGDRVTITCRSSQTIVHSNGDTYLEWYQQKPGKAPILLIYKVSNRWSGVPSRFSGSGSGTDFTLTISSLQPEDFATYYCFQGSHVPVTFGQGTKVEIK	10.56
28V31S54V59D / 101V (antibody, V domains shown, KCD119 TAF variant; full antibody captured on protein A) VH: EVQLVESGGGLVQPGGSLRLSCAASGYVFTSYYMNWVRQAPGKGLEWIGDINPVTGDTDYNADFKRRFTFSLDTSKSTAYLQMNSLRAEDTAVYYCTREGPSFAYWGQGTLVTVSS VL: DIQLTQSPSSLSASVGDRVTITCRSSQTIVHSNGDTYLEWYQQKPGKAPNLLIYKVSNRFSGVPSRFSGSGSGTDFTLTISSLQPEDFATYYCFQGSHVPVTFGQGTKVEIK	10.29
31S34I54I59D / 32W60W101V (antibody, V domains shown, KCD119 TAF variant; full antibody captured on protein A) VH: EVQLVESGGGLVQPGGSLRLSCAASGYTFTSYYINWVRQAPGKGLEWIGDINPITGDTDYNADFKRRFTFSLDTSKSTAYLQMNSLRAEDTAVYYCTREGPSFAYWGQGTLVTVSS VL: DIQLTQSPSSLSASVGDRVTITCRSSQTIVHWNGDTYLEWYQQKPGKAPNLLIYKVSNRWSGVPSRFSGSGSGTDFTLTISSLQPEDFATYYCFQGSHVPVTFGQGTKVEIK	10.51

These measurements were taken from patent US20180334496A1.
